- Tested on: Mycobacterium tuberculosis
- test_name: Cornell - Phenotypic assay to identify agents that inhibit growth of Mycobacterium tuberculosis
- Type: functional
- Parameters: scale not given: direction of the effect not stated beside the values
- conditions_used: 10 mM as filed; unlikely as a test dose
About 900 (1.7%) of roughly 53,000 compounds showed an effect of 50% or more. The entries come from a sample that favours strong results as a whole.
For each entry below, report its Percent Effect value.
Answers are plain numbers, in %.

Example cases with answers are listed next.
> print(dat)
                                   molecule  unit.abbrev  quantitative.result
1  CN1CCCC1CCNC(=O)c1ccccc1-n1cc(CN)cn1 (centres undefined)            %                7.916
2             Cc1noc(C)c1CCC(=O)Nc1ccn(C)n1            %               -3.564
3  FC(F)c1nnc2ccc(N3CCC4(CCOC4)C3)nn12 (centres undefined)            %                23.66

Next, consider the following molecule.
Documented Percent Effect of Cc1nonc1OCCNC(=O)COc1ccc(Cl)cc1Cl : 17.56

* * *

- System: Mycobacterium tuberculosis
- test_name: Cornell - Phenotypic assay to identify agents that inhibit growth of Mycobacterium tuberculosis
- Assay type: functional
- Design: scale not given: direction of the effect not stated beside the values
- conditions_used: 10 mM as filed; unlikely as a test dose
About 900 (1.7%) of roughly 53,000 compounds showed an effect of 50% or more. What follows is part of a selection rich in strong results, with near analogues and random picks from the rest.
measured_parameter: Percent Effect (%)
Answers are plain numbers, in %.

Take a look at these entries with their results.
> print(dat)
                                smiles.data                 target.desc  measured.parameter  quantitative.result
1     Cc1nn(CC(C)C)c(N(C)C)c1CNCCS(C)(=O)=O  Mycobacterium tuberculosis      Percent Effect                 83.1
2       CC(C)CCC(=O)N(C)CC(=O)Nc1ccc(Br)cn1  Mycobacterium tuberculosis      Percent Effect               -12.94
3      Cc1nn(CC(C)C)c(N(C)C)c1CNCc1ccccc1CO  Mycobacterium tuberculosis      Percent Effect                17.46
4     CC(=O)c1c(C)nn(CC(=O)Nc2ccc(F)cc2)c1C  Mycobacterium tuberculosis      Percent Effect               -30.72
5  COC(=O)c1ccn(CC(=O)Nc2nn(CC3CC3)c3ccccc23)n1  Mycobacterium tuberculosis      Percent Effect                50.91

Form: compound = COc1ccc(NC(=O)Cn2nc(C)c(C)cc2=O)cc1 ; Percent Effect = -2.402

* * *

- System: Mycobacterium tuberculosis
- test_name: Cornell - Phenotypic assay to identify agents that inhibit growth of Mycobacterium tuberculosis
- Assay type: functional
- Parameters: scale not given: direction of the effect not stated beside the values
- conditions_used: 10 mM as filed; unlikely as a test dose
About 900 (1.7%) of roughly 53,000 compounds showed an effect of 50% or more. For the sample, strong results were picked, then their nearest neighbours and some compounds at random.
Assignment: determine reported Percent Effect for the given compounds.
One number for each entry, in %.

> print(dat)
                            compound                 target.desc  quantitative.result
1  CCN(Cc1ncc(C(C)(C)C)o1)Cc1ccccc1C  Mycobacterium tuberculosis               -5.269

Batch: Percent Effect for all items listed.
1. CN(C(=O)Cn1nnnc1C(C)(C)C)c1ccccc1
2. CC1CCC(NS(=O)(=O)CC(=O)Nc2ccccc2N2CCCC2)CC1 (centres undefined)
3. CNC(=O)CS(=O)(=O)NC1CCC(C)CC1 (centres undefined)
4. CC(=O)Nc1nc(C(=O)NCc2ccc(N3CCCCC3)cc2)cs1
5. COc1ccc(C(=O)N2CCOC(Cc3cccc(C(F)(F)F)c3)C2)o1 (centres undefined)
6. COC(=O)Cn1nc(-c2ccccc2F)ccc1=O
7. CC1CCC(NS(=O)(=O)CC(=O)NC(C2CC2)C2CC2)CC1 (centres undefined)

1. -5.466
2. 81.68
3. -17.27
4. -6.079
5. 107.3
6. -14.4
7. -19.5

Record Percent Effect per entry; entries follow.
1. CCc1nc(CNc2nc3c(s2)c(C)nn3C)cs1
2. CCN(CC(C)C#N)C(=O)CNc1cc(Cl)ccc1C(N)=O (centres undefined)
3. Cc1occc1-c1nc(NC2CCCC2)ncc1-c1ccccn1
4. CC(C)c1nc(N2CCC(N3CCCCCC3)CC2)c2cnn(C)c2n1
5. CCC1C(=O)NCCN1c1nccc(C)n1 (centres undefined)
6. Cc1csc(CNc2nc3c(s2)c(C)nn3C)n1
7. CCN(Cc1cccc(Cl)c1)Cc1ncc(C(C)(C)C)o1
8. CC(SCC(=O)N(C)CC(=O)NC1CC1)c1cc(F)ccc1F (centres undefined)

[82.51, -0.05585, 85.8, 30.23, -0.2663, 21.44, 0.2424, -24.27]

Respectfully, I request Percent Effect for each entry included below.
1. COc1cccc(CCC2CCCN(C(C)=O)C2)c1 (centres undefined)
2. CCOC(=O)Cn1nnnc1-c1ccccc1
3. CC(=O)N1CCC(c2ncc(C(=O)Nc3ccc(F)cc3)c(C)n2)CC1
4. Fc1ccc(Sc2ccccc2CNC2=NCCN2)cc1.I
5. CC(C)c1nc(N2CCN3CCCC3C2)c2cnn(C)c2n1 (centres undefined)

[19.46, 99.52, 4.765, 18.51, 62.47]

Value sought for every listed compound: Percent Effect.
1. c1cc(CN2CCCC(c3ccnc4nccn34)C2)ccn1 (centres undefined)
2. Cc1cc(C(=O)N(C)CCN(C)C(=O)OC(C)(C)C)oc1C
3. CC(C)(C)C(=O)NS(=O)(=O)c1ccc(F)cc1C(F)(F)F
4. Cc1nonc1CNC(=O)C(C)Oc1ccccc1F (centres undefined)
5. Cc1noc(C)c1CNC(=O)C(C)Oc1ccccc1F (centres undefined)
6. Cc1cccc(CN(Cc2ccccn2)Cc2ncc(C(C)(C)C)o2)c1
7. Cc1nc(N2CCC(CC(=O)N3CCCC3)CC2)c2cnn(C)c2n1

1. 21.25
2. -8.303
3. 31.3
4. 47.11
5. -2.201
6. 69.04
7. 3.468

Data origin, for the record: ChEMBL document CHEMBL3988442
